procedure.summary: Metabolic stability in human liver microsomes assessed as compound remaining after 30 mins by LC-MS/MS analysis
Format: ADME, Microsome
assay.conditions: read-out: Stability
test.readout: remaining at 0.5 h (%)
Reply with just the number (in %).

IN: Provide one value: measured remaining at 0.5 h of CC1(C)NC(=S)N(c2ccc(C#N)c(Cl)c2)C1=O
OUT: 0.022

----------
experimental.system: hERG (KCNH2) (Homo sapiens)
Sequence (Q12809 whole entry): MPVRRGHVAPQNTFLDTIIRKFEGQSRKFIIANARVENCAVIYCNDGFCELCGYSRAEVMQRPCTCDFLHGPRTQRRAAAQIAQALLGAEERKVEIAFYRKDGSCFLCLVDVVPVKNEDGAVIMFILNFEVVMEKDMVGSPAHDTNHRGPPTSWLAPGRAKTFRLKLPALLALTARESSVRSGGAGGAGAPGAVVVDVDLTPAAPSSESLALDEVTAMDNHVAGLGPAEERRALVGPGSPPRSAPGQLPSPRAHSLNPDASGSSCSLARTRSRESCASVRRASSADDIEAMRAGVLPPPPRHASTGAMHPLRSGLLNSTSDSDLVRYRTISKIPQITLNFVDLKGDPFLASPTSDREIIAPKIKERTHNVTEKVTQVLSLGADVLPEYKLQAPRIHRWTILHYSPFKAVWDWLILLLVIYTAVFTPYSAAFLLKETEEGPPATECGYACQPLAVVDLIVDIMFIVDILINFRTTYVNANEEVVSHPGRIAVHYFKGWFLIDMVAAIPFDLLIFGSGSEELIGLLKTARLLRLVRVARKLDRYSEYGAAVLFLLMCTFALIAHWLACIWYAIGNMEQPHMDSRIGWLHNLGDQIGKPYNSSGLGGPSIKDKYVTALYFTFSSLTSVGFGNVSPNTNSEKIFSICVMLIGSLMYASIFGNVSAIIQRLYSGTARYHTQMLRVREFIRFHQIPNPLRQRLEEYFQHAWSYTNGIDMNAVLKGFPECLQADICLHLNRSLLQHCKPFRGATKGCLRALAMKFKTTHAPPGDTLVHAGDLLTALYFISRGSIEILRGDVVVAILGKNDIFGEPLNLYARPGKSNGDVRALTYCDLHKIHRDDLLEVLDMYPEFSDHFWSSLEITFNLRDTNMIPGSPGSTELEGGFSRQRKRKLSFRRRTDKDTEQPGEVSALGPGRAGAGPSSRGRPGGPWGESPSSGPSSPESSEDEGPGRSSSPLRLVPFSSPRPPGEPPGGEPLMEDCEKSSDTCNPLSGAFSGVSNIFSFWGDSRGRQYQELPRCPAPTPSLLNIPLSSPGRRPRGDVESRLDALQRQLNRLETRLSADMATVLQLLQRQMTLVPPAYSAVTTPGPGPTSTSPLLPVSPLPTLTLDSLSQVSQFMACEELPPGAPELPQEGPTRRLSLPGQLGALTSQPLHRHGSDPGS
procedure.summary: Inhibition of human ERG at 10 uM by whole cell patch-clamp technique
So basically: inhibition at 10 µM at 30% or higher? That is criterion met. Lower than 30%? That is criterion not met.

Example entries and their recorded answers appear below.
{"compound": "CC1(C)C(=O)N(c2ccc(C#N)c(Cl)c2)C(=S)N1c1cccc(S(N)(=O)=O)c1", "assigned.label": "criterion met"}
{"compound": "CC1(C)C(=O)N(c2ccc(C#N)c(Cl)c2)C(=S)N1CCCS(N)(=O)=O", "assigned.label": "criterion not met"}
{"compound": "CC1(C)C(=O)N(c2ccc(C#N)c(C(F)(F)F)c2)C(=S)N1c1ccnc(S(N)(=O)=O)c1", "assigned.label": "criterion not met"}
{"compound": "CC1(C)C(=O)N(c2ccc(C#N)c(C(F)(F)F)c2)C(=S)N1c1cncc(S(N)(=O)=O)c1", "assigned.label": "criterion met"}
{"compound": "CC1(C)C(=O)N(c2ccc(C#N)c(C(F)(F)F)c2)C(=S)N1c1cccc(S(N)(=O)=O)n1", "assigned.label": "criterion not met"}
{"compound": "CC1(C)C(=O)N(c2ccc(C#N)c(C(F)(F)F)c2)C(=S)N1c1cccc(S(N)(=O)=O)c1", "assigned.label": "criterion met"}

IN: Hello, I need to know if CC(O)(CS(=O)(=O)c1ccc(F)cc1)C(=O)Nc1ccc(C#N)c(C(F)(F)F)c1 (centres undefined) [BICALUTAMIDE] has measured inhibition at 10 µM not below 30%. Thanks!
OUT: criterion not met

IN: Hello, I need to know if CC1(C)C(=O)N(c2ccc(C#N)c(Cl)c2)C(=S)N1c1cccc(S(N)(=O)=O)n1 has measured inhibition at 10 µM not below 30%. Thanks!
OUT: criterion not met

IN: Hello, I need to know if CC1(C)C(=O)N(c2ccc(C#N)c(Cl)c2)C(=S)N1c1cncc(S(N)(=O)=O)c1 has measured inhibition at 10 µM not below 30%. Thanks!
OUT: criterion met
